# Tested on: SW-620
# assay protocol: NCI tumour cell line growth inhibition, 48 h
Calls of active or inactive are those of the source. Cut-off read from the data, not from the text of the source: active = GI50 up to about 1.1 µM and inactive = higher.
Returns: one label drawn from 1.0 for active, 0.0 for inactive

(Q) Please state the recorded outcome for this compound: CC(=O)O[C@H]1[C@@H](N2CCCCC2)C[C@H]2[C@@H]3CC=C4C[C@@H](N5CCCC5)CC[C@]4(C)[C@H]3CC[C@@]21C
(A) 0.0

(Q) Again, but for CCS/C(=N\c1ccccc1)SC
(A) 0.0

(Q) Repeat with CCn1c(SCC(=O)NNC(=S)Nc2ccc(Cl)cc2)nc2ccccc2c1=O
(A) 0.0

New cases:
(Q) Recorded test outcome, item C/C(CC1SCCCS1)=C(/C)CC1SCCCS1
(A) 0.0

(Q) Now the same for N=c1oc2ccccc2cc1C(=O)NC12CC3CC(CC(C3)C1)C2
(A) 0.0

(Q) Would you mind doing Oc1cc(-c2ccccc2)nc2cc(Cl)ccc12 as well?
(A) 1.0

* * *

# Tested on: HCT-116
# assay protocol: NCI tumour cell line growth inhibition, 48 h
Activity calls are given as the source filed them. Cut-off read from the data, not from the text of the source: active = GI50 up to about 1.1 µM and inactive = higher. Numbered stars: 1 amine (or outer) side, 2 acyl side, 3 side chain; on linkers, the order of the positions; unused ones are H or OH. Bridge positions count the residues as written; N and C are the ends. Square brackets hold non-standard residues; d marks the D form. Peptide text beside a SMILES is read from it. I, II: the chains in the order shown. Actinocin(9to1) = Cc1c2oc3c(C)ccc(C(=O)[*:1])c3nc-2c(C(=O)[*:2])c(N)c1=O; X48 = O=C1CC(C(=O)[*:2])N([*:1])C1; NMeV = CN[CH](C(=O)O)C(C)C; Sar = CNCC(=O)O
Could you please pick one outcome from this set? True = active, False = inactive

(Q) Per the assay record, what outcome was assigned to CC(=O)C1=C(C)NC2C=CC=CN12 (configuration not stated) ?
(A) False

(Q) Please do the same for O=C1OS2(OCc3cccc4cccc2c34)c2ccccc21 (configuration not stated) as well.
(A) False

(Q) Check CC(=O)OCc1cccc(O)c1C(=O)CCC=C(C)C too.
(A) False

(Q) Then CCOC(=O)CCC(NC(=O)N1CCN(c2c(C)nc(C)nc2O)CC1)C(=O)OCC (configuration not stated) ?
(A) False

(Q) Another compound to check: Nc1cccc2c1-c1c(cccc1[N+](=O)[O-])C2=O
(A) False

Next:
(Q) // return assay outcome for N#CC(/C(CCCC(=O)Nc1cccc([N+](=O)[O-])c1)=N/NC(=O)c1cc2ccccc2cc1O)c1ccccc1 (configuration not stated)
(A) False

(Q) And what about the compound O=c1c2ccccc2oc2nccnc12 ?
(A) False

(Q) Now try COc1ccc2c(c1)c1c(n2CCN2CCCCC2)-c2ccccc2CC1 .
(A) False

(Q) Please give the result for C/N=C(N)/N=C(\N)Nc1cc2ccccc2c2ccccc12 too.
(A) False

(Q) Repeat with COC(=O)C1(SC)C2CCC3C2CCC31 (configuration not stated)
(A) False

(Q) Then this compound: Cc1c2oc3c(C)ccc(C(=O)NC4C(=O)NC(C(C)C)C(=O)N5CC(=O)CC5C(=O)N(C)CC(=O)N(C)C(C(C)C)C(=O)OC4C)c3nc-2c(C(=O)NC2C(=O)NC(C(C)C)C(=O)N3CC(=O)CC3C(=O)N(C)CC(=O)N(C)C(C(C)C)C(=O)OC2C)c(N)c1=O (configuration not stated) (I: TV[X48][Sar][NMeV] / II: TV[X48][Sar][NMeV]; ester I:1-I:C, II:1-II:C; linker I:N-II:N via Actinocin(9to1); configuration not given here)
(A) True

(Q) Queued: CCOC(=O)c1c(SCCO)n(-c2ccccc2)c(=S)n(-c2ccccc2)c1=O
(A) False

* * *

# System: NCI/ADR-RES
# assay protocol: NCI tumour cell line growth inhibition, 48 h
The source made the active and inactive calls. Cut-off read from the data, not from the text of the source: active = GI50 up to about 1.1 µM and inactive = higher.
value type: GI50

Worked cases, GI50 given:
(Q) Param readout= GI50; system= NCI/ADR-RES; entry= C=CC(OC(=O)C(C)C)c1ccc(OC(=O)C(C)C)cc1 (configuration not stated) ; returns value.
(A) 14.2 µM (inactive)

(Q) # repeat for COc1cccc(N2C(=O)C3CC(CC(C)(C)C)c4c([nH]c5ccccc45)C3C2=O)c1 (configuration not stated)
(A) > 10 µM (inactive)

More entries:
(Q) Lab request: please report GI50 under test system NCI/ADR-RES for O=C(NCCn1ccnn1)Nc1ccccc1
(A) > 100 µM (inactive)

(Q) What about this molecule? O=Nc1ccc(O)c2ncccc12
(A) 3.85 µM (inactive)

(Q) Query C[C@H](N)C(=O)N[C@@H]1[C@H]2C(=C(O)C[C@@H](O)[C@@H]2O)C(=O)O[C@@H]1C next
(A) > 100 µM (inactive)

(Q) How about this molecule: OC(C/C(=N\N=C(/CC(O)(C(F)(F)F)C(F)(F)F)c1ccccc1)c1ccccc1)(C(F)(F)F)C(F)(F)F
(A) > 10 µM (inactive)

(Q) # iterate: COP(=O)(OC)C(Cc1c[nH]c2ccccc12)NC(=O)OCc1ccccc1 (configuration not stated)
(A) > 100 µM (inactive)

* * *

# System: HCT-116
# assay protocol: NCI tumour cell line growth inhibition, 48 h
Activity calls are given as the source filed them. No stated cut-off is given here; in the data, active = GI50 up to about 1.1 µM and inactive = higher.
value type: GI50

The examples below pair each entry with its known result.
(Q) Report GI50 for Brc1ccc(C2SCc3nc4ccccc4n32)cc1 (stereo unspecified) please.
(A) 6.3 µM (inactive)

(Q) Next record, please: C1COCCOP2(N3CC3)=NP(N3CC3)(=NP(N3CC3)(N3CC3)=N2)OCCOCCO1 (stereo unspecified)
(A) > 100 µM (inactive)

(Q) Likewise for O=C(O)c1ccc(CNCc2ccccc2)cc1 ?
(A) > 100 µM (inactive)

(Q) Nc1nc(Cl)cc(OCC2(CO)CC=CC2)n1 ?
(A) > 100 µM (inactive)

(Q) Check Cc1ccc(O)c(C(c2cccc(C(c3cc(C)ccc3O)c3cc(C)ccc3O)c2)c2cc(C)ccc2O)c1 too.
(A) 1.89 µM (inactive)

Here is the next item to consider.
(Q) Which GI50 value is on record for CN1C/C(=C\c2cccs2)C(=O)/C(=C/c2cccs2)C1 ?
(A) 14.2 µM (inactive)

* * *

// values below are reported GI50
# Tested on: CCRF-CEM
# assay protocol: NCI tumour cell line growth inhibition, 48 h
Calls of active or inactive are those of the source. No stated cut-off is given here; in the data, active = GI50 up to about 1.1 µM and inactive = higher.

Answered cases to consult:
(Q) Can you look up the measured GI50 of COc1ccc(C(OCC2OC(n3cnc4c(=O)n(Cc5ccccc5[N+](=O)[O-])nnc43)C(O)C2O)(c2ccccc2)c2ccc(OC)cc2)cc1 (centres undefined) for me?
(A) 3.76 µM (inactive)

(Q) Another: COC(=O)c1c(C#N)c(N)nc2c1CCC2
(A) 99.8 µM (inactive)

(Q) Another: O=C(C#Cc1cnc(O)nc1O)c1ccccc1
(A) 1.97 µM (inactive)

---
(Q) Requested read-out: GI50. Entry: CN(C)c1ccc(/C=C2\N=C(NN)NC2=O)cc1
(A) 65.8 µM (inactive)

* * *

# Tested on: XF498
# assay protocol: NCI tumour cell line growth inhibition, 48 h
Active and inactive are the calls of the source. Rule as the data show it: active = GI50 up to about 1.1 µM and inactive = higher.
Pick from TRUE for active, FALSE for inactive when you respond.

(Q) I would be grateful if you could indicate the recorded call for BrC(/C=N/Nc1nnc(-c2ccccc2)c(-c2ccccc2)n1)C(Br)c1ccccc1 (configuration not stated) .
(A) FALSE

* * *

# Test system: ACHN
# assay protocol: NCI tumour cell line growth inhibition, 48 h
The source made the active and inactive calls. Cut-off read from the data, not from the text of the source: active = GI50 up to about 1.1 µM and inactive = higher.
Respond only with the outcome that fits, drawn from 1 (yes) for active, 0 (no) for inactive

(Q) Per the assay record, what outcome was assigned to CC(=O)NNc1nc(C)c(C(=O)/C=C/C=C/c2ccccc2)s1 ?
(A) 0 (no)

Continuing:
(Q) Write down the call the test reported for this compound. Item: C/C(N)=N/OCc1nc(C)no1
(A) 0 (no)

(Q) Cc1nc2c(O)cc3c4c([nH]c3c2nc1C)C(=O)CCC4 ?
(A) 0 (no)

(Q) Cool, now C1=N\CCNCC/N=C/c2ccccc2OCc2cccc(n2)COc2ccccc2/1
(A) 0 (no)

(Q) Do the same for COc1cc(C2c3cc4c(cc3[C@@H](Nc3ccc(F)cc3)C3CO[C@@H](O)[C@H]23)OCO4)cc(OC)c1O (stereo partly specified) please
(A) 1 (yes)

(Q) Please give the result for O=C1CSC2(CC(/C=C/c3ccccc3[N+](=O)[O-])=NN2c2cccc(S(=O)(=O)O)c2)N1c1nc2ccccc2s1 (stereo unspecified) too.
(A) 0 (no)

* * *

Some compounds, each annotated with its measured GI50.
# System: HCT-15

(Q) Fill in the blank: the reported GI50 of CCC(N)(C(=O)O)C(C)C (stereo unspecified) is ____.
(A) > 100 µM

(Q) What about O=C(O)[C@@H]1NC[C@H]2C(Br)=NO[C@H]21 ?
(A) > 100 µM

(Q) Proceed to COc1ccc(OC)c([N+](=O)[O-])c1-c1nc2sccn2c1/C=N/N=C(N)N
(A) > 100 µM

Further cases:
(Q) Please look up its GI50: COC(=O)C1C(OS(=O)(=O)O)CCC2CN3CCc4c([nH]c5ccccc45)C3CC21 (stereo unspecified)
(A) > 100 µM
